Please find below pIC50 data on UniProt:Q13574 compiled from the literature.
Units for pIC50: none; it is -log10 of a concentration expressed in mol/L.

Recorded pIC50, per entry:
COMPOUND	MEASUREMENT_KIND	ENDPOINT_VALUE
CC[C@@H]1CN(c2nc3nncn3c3ccc(C#N)nc23)[C@@H](CC)CN1C(=O)c1ccc(C(F)(F)F)cc1	pIC50	5.94
CC[C@H]1CN(C(C)c2ccc(OCCOC)cc2)[C@H](CC)CN1c1cc(=O)n(C)c2cn(CC#N)nc12 (stereo partly shown)	pIC50	6.30
CC(C)(c1nnc(-c2cc3c(cc2F)C(F)(F)C[C@@H](N)C(=O)N3Cc2ccc(-c3ccc(C(F)(F)F)cc3)cc2)o1)S(C)(=O)=O (single isomer, unassigned)	pIC50	4.47
CC[C@H]1CN(C(C)c2ccc3ccsc3c2)[C@H](CC)CN1c1cc(=O)n(C)c2cn(CC#N)nc12 (stereo partly shown)	pIC50	7.47
CC(c1ccc2c(c1)OC(C)(C)CO2)N1C[C@H](C)N(c2c(C#N)c(=O)n(C)c3cc(CC#N)nn23)C[C@H]1C (stereo partly shown)	pIC50	7.54

The value of pIC50 measured for the compound CC[C@@H]1CN(c2nc(=O)n(C)c3ccc(C#N)nc23)[C@@H](C)CN1[C@@H](CC)c1ccc(S(F)(F)(F)(F)F)cc1 (stereo in doubt) turned out to be 7.55

The value of pIC50 measured for the compound CC(C)(c1nnc(-c2cc3c(cc2F)C(F)(F)C[C@@H](N)C(=O)N3Cc2ccc(-c3noc(C(F)(F)F)n3)cc2)o1)S(C)(=O)=O (single isomer, unassigned) turned out to be 4.83

The value of pIC50 measured for the compound CC(C)(C#N)c1nnc(-c2cc3c(cc2F)C(F)(F)C[C@@H](N)C(=O)N3Cc2ccc(-c3ccc(C(F)(F)F)cn3)cc2)o1 (single isomer, unassigned) turned out to be 5.54

The value of pIC50 measured for the compound Cn1c(=O)nc(N2CCC3(CC2)COC(c2ccc(OC(F)(F)F)cc2)=N3)c2nc(Cl)ccc21 turned out to be 6.32

---

Please find below IC50 data on UniProt:Q13574 compiled from the literature.
Respond numerically; units are nM and should not be typed.

Recorded IC50, per entry:
COMPOUND	IC50 / nM
CC(C)(C#N)c1nnc(-c2cc3c(cc2F)C(F)(F)C[C@@H](N)C(=O)N3Cc2ccc(-c3ncc(C(F)(F)F)cc3F)cc2)o1 (single isomer, unassigned)	7240
CC[C@H]1CN([C@@H](CC)c2cccc(C(F)(F)F)c2)[C@H](CC)CN1c1nc2nncn2c2ccc(C#N)nc12 (stereo in doubt)	29
CC[C@H]1CN(C(C)c2ncc(C3CC3)cc2C)[C@H](CC)CN1c1cc(=O)n(C)c2cn(CC#N)nc12 (some centres unmarked)	51
CC[C@@H]1C[C@@]2(CCN1c1nc(=O)n(C)c3ccc(C#N)nc13)CC(c1ccc(OC(F)(F)F)cc1)=NO2 (single isomer, unassigned)	660
CC[C@H]1CN(C(C)c2ccc3c(F)cnn3c2)[C@H](CC)CN1c1cc(=O)n(C)c2cn(CC#N)nc12 (some centres unmarked)	179

Next compound, please.
Result for CC[C@H]1CN(C(C)c2ccc3c(c2)CCO3)[C@H](CC)CN1c1cc(=O)n(C)c2cn(CC#N)nc12 (some centres unmarked) , tested on UniProt:Q13574, IC50: 71
